Where these numbers come from: PubChem BioAssay

Method Summary: mitochondrial membrane potential change in A549 cells, profiling panel, cell-based, JC-1 fluorescence, basal, 24 h, 100 nL (AID 1138);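 further: A549 lung adenocarcinoma cells under basal conditions with no added stimulus; test concentration not given here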
Experimental Conditions: higher = more signal
Each item that follows carries a reported z-score.
Property Measured: z-score

CN1C(=O)C2C=CC(C(O)c3cccs3)N(Nc3ccccc3)C2C1=O (centres undefined)	0.0177
CN1C2C=C(CCCO)C(C3C(=O)N(C(N)=O)C(=O)C32)C1c1ccc(CN2CCCC2)cc1 (centres undefined)	-0.637
C=CCOC(=O)[C@H]1[C@@H]2C(=O)O[C@@H](c3ccccc3)[C@@H](c3ccccc3)N2[C@@H](c2ccc(OCCOC(=O)[C@H]3C[C@H]4C(=O)N5CCC[C@H]5C(=O)N4[C@H]3c3ccc(O)cc3)cc2)[C@]12C(=O)Nc1ccccc12	-1.42
COC(=O)[C@@]1(Cc2ccc(F)cc2)[C@H]2c3cc(C(=O)N(C)C)n(CC4CC4)c3C[C@H]2CN1C(=O)c1ccccc1	0.524

###

Target Entity: Dickkopf-related protein 1 (Homo sapiens) (UniProt O94907)
Sequence (O94907 whole entry, looked up): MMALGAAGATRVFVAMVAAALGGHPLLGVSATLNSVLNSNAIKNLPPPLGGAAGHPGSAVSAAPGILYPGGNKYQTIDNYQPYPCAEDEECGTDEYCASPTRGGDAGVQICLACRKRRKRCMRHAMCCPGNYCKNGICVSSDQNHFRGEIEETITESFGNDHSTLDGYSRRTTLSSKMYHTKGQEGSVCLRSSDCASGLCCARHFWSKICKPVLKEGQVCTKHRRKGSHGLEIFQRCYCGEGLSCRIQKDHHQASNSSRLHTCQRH
Method Summary: DKK1 binders on small-molecule microarrays, primary screen, biochemical, small-molecule microarray, 635 nm fluorescence scan (AID 1106);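 further: score merges emission near 667 nm with signal to noise over three replicate slides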
Experimental Conditions: DKK1 binding, higher = more signal
Would you please tag the item Yes when its composite z-score is -0.9 or above, and No when it is below?

C[N+](C)(C)CCCCNC(=O)[C@H]1C[C@H]2C(=O)N[C@@H](Cc3ccccc3)C(=O)N2[C@H]1c1ccc(O)cc1	Yes
NCCCCCNC(=O)[C@@H]1C[C@@H]2C(=O)NCC(=O)N2[C@@H]1c1ccc(O)cc1	Yes
O=C1C2C=CC(C(O)c3ccc(F)cc3)N(Nc3ccccc3F)C2C(=O)N1c1ccccc1 (stereo not given)	Yes
O=C(O)[C@@]1(CCS(=O)(=O)c2ccccc2)COC(c2ccc(OCCCO)cc2)=N1	No
CCCC[C@@H]1C[C@H]1[C@@H](NC(=O)c1ccco1)c1ccc(C(=O)OC)cc1	Yes

###

Target Entity: Follistatin-related protein 3 (Homo sapiens) (UniProt O95633)
Sequence (O95633 whole entry, looked up): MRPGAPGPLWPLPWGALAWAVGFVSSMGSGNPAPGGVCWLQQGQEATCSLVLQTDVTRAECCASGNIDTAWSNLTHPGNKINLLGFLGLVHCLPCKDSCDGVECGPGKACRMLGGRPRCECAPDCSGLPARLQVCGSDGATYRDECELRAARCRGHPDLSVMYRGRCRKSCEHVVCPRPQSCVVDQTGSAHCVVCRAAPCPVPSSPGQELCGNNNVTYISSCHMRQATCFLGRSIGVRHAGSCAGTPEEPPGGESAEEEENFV
Method Summary: FSTL3 binders on small-molecule microarrays, primary screen, biochemical, small-molecule microarray, 635 nm fluorescence (AID 1105);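 further: score merges emission near 667 nm and signal to noise per printed spot across three slides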
Experimental Conditions: FSTL3 binding, higher = more signal
Would you please tag the item satisfied when its composite z-score is 0.4 or above, and not satisfied when it is below?

CCOC(=O)C[C@H]1[C@H](OC(=O)c2ccc(C(=O)c3ccccc3)cc2)[C@@H](NC(=O)c2ccc(-c3ccccc3)cc2)c2cc(OCCCO)ccc2N1C(=O)c1ccccc1	satisfied
C=CCNC(=O)[C@H]1[C@@H]2C(=O)O[C@@H](c3ccccc3)[C@@H](c3ccccc3)N2[C@@H](c2ccc(O)cc2)[C@]12C(=O)N(C(=O)OCCOC)c1ccc(C#CCNC(N)=O)cc12	satisfied
CCCC[C@@H]1C[C@H]1[C@@H](NC(=O)c1ccco1)c1ccc(C(=O)OC)cc1	not satisfied
O=C1C2C=CC(C(O)C3CCCCC3)N(Nc3ccc([N+](=O)[O-])cc3)C2C(=O)N1c1ccccc1 (stereo not drawn)	not satisfied
O=C1NC(=O)C2C1C=CC(C(O)c1cccc3ccccc13)N2Nc1ccccn1 (stereo not drawn)	satisfied
CC(C)C(CO)N1C(=O)[C@@H]2[C@H]3C(=O)OCC=C[C@H]3OC23C=CCN(C(C)C)C(=O)[C@@H]13 (stereo partly drawn)	not satisfied
C=C(C)C1C(=C)CN([C@H](CO)c2ccccc2)C1=O (stereo partly drawn)	not satisfied
COCCCN1C(=O)[C@@]2(Cc3ccccc31)c1ccccc1C(=O)N(Cc1ccccc1C(F)(F)F)[C@H]2c1ccc(CO)cc1	satisfied
COCCOC(=O)N1C(=O)[C@@]2(c3cc(C#CCCO)ccc31)[C@H](C(=O)N1CCc3cc(OC)c(OC)cc3C1)[C@H]1C(=O)O[C@H](c3ccccc3)[C@H](c3ccccc3)N1[C@@H]2c1ccc(O)cc1	satisfied
COC(=O)[C@@]1(Cc2ccc(F)cc2)[C@@H]2[C@@H](CC(=O)[C@H]2CC(=O)C(=O)N(C)C)CN1C(=O)c1ccccc1	satisfied
O=C1O[C@@H](c2ccccc2)[C@@H](c2ccccc2)N2[C@@H](c3ccccc3OCCO)[C@]3(C(=O)Nc4ccc(C#CC5=CCCCC5)cc43)[C@@H](C(=O)Nc3nc4ccccc4s3)[C@H]12	satisfied
C=CCC(OC(C)=O)[C@@H]1[C@@H](N(Cc2cccc3ccccc23)C(=O)c2ccc(-c3ccccc3)cc2)c2cc(OCCCO)ccc2N1C(=O)Cc1ccc(OC)cc1 (stereo partly drawn)	satisfied
C=CCNC(=O)[C@@H]1[C@H]2C(=O)O[C@H](c3ccccc3)[C@H](c3ccccc3)N2[C@H](c2ccccc2OCCO)[C@@]12C(=O)N(C(=O)OCCOC)c1ccc(C#CCNC(N)=O)cc12	satisfied
